tested on: SN12C renal; assay: NCI tumour cell line growth inhibition, 48 h
Reported TGI is given for each of the following compounds.

# example entries with known answers
{"columns": ["Compound", "Obs value"],
 "data": [
  ["C=C1C[C@@H]2CC[C@@]34CC5O[C@H]6C(O[C@H]7CC[C@H](CC(=O)O[C@@H]8[C@@H](C)[C@@H]9O[C@@H]%10C[C@]%11(C[C@@H]%12O[C@]%13(C[C@H](C)[C@@H]%14O[C@@H]%15CC(C(O)CO)O[C@@H]%15C[C@@H]%14O%13)C[C@H](C)[C@@H]%12O%11)O[C@@H]%10C[C@@H]9O[C@H]8CC8O[C@@H](CC[C@@H]1O2)C[C@@H](C)C8(O)CO)O[C@@H]7[C@@H]6O3)[C@H]5O4 (stereo not given in full)", "> 1 µM"],
  ["O=C(Nc1ccccc1)OCCN=C1c2ccccc2C(Br)C(Br)c2ccccc21 (stereo not given)", "17.5 µM"],
  ["N#CC(C#N)=c1ccc(=C2NCC3CCCN23)cc1 (stereo not given)", "> 100 µM"],
  ["Cc1ccc(S(=O)(=O)NC(=O)NC(CC(N)=O)C(=O)O)cc1 (stereo not given)", "> 100 µM"],
  ["NC1c2c(Br)sc(N3CCCC3)c2C(=O)C1O (stereo not given)", "> 50 µM"]
]}

Consider now this further compound.
Qu. # get_value(readout='TGI', item= Cn1ccnc1C(=O)/C=C/c1ccc(CC(=O)Nc2ccc(Br)cc2)cc1 )
Ans. 11.1 µM

###

test system: MDA-MB-231 breast; assay: NCI tumour cell line growth inhibition, 48 h
Experimental endpoint: TGI (µM)
Give a bare numeral; the unit µM is implied.

{"columns": ["Compound", "TGI [µM]"],
 "data": [
  ["CCOc1ccccc1-n1c(CN2CCN(C(=O)COc3ccc(CNCCCCCCN4C5CCCC4CC(OC(=O)Nc4cc(C)ccc4OC)C5)cc3)CC2)nc2ccccc2c1=O (stereo not given)", 2.13]
]}

Consider now this further compound.
Qu. # get_value(readout='TGI', item= CN(C)CCCN1c2ccc([N+](=O)[O-])cc2CCc2cccc([N+](=O)[O-])c21 )
Ans. 26.1

###

system: TK-10 renal; assay: NCI tumour cell line growth inhibition, 48 h
Experimental endpoint: TGI

# example entries with known answers
{"columns": ["Compound", "System name", "TGI"],
 "data": [
  ["C=CCc1cc(OC)c2c(c1)C(O)CC(c1ccc(OC)c(OC)c1)O2 (stereo unspecified)", "TK-10 renal", "> 100 µM"],
  ["CCCCCCCCSC1=CC(=O)c2nc3ccccc3c3ccnc1c23", "TK-10 renal", "> 100 µM"],
  ["S=C1NCCN1", "TK-10 renal", "> 100 µM"],
  ["CC1CN1P1(N2CC2C)=NP(N2CC2C)(N2CC2C)=NP(N2CC2C)(N2CC2C)=N1 (stereo unspecified)", "TK-10 renal", "> 50 µM"],
  ["COc1ccccc1NC(=O)CC(=O)n1nc(C)c(N=Nc2ccccc2C(=O)O)c1C", "TK-10 renal", "> 100 µM"],
  ["O=C1N(C2CCCCC2)C(=O)N1C1CCCCC1", "TK-10 renal", "38.5 µM"]
]}

Qu. # get_value(readout='TGI', item= O=C1/C(=C/c2ccc([N+](=O)[O-])cc2)COc2ccc(O)c(O)c21 )
Ans. 3.99 µM

Qu. // next record COc1c2c(cc3c1C(=O)c1c(O)cccc1C3=O)CC(O)CC2 (stereo unspecified)
Ans. > 100 µM

Qu. // next record COc1ccc2c(c1)C1(C=N2)CCN(C(C)=O)CC1
Ans. > 100 µM

Qu. // next record O=c1n(CC2CO2)c(=O)n(CC2CO2)n1CC1CO1 (stereo unspecified)
Ans. > 100 µM

Qu. // next record CC1=C(C#N)C23C(=O)c4ccccc4C(O)=C2C(=O)C=CC3(O)N1Cc1ccccc1 (stereo unspecified)
Ans. > 100 µM
